target: Human plasma plasmin (Homo sapiens); assay: Ki determination, human plasma plasmin (Tosyl-Gly-Pro-Lys-pNA); settings: 100 mM Tris-HCl, pH 7.4, 100 mM NaCl, 0.05% Triton X-100; read-out: Experimentally Determined Ki, Plasmin
Sequence (P00747 581-810 limits assumed): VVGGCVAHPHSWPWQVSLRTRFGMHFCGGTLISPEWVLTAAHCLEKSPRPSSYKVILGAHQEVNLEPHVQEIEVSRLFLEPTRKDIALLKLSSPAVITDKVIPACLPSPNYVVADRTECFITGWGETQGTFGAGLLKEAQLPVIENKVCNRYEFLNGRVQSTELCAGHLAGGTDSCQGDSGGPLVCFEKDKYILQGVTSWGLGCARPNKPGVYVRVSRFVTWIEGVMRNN
Sequence (P00747 97-580 partner limits assumed): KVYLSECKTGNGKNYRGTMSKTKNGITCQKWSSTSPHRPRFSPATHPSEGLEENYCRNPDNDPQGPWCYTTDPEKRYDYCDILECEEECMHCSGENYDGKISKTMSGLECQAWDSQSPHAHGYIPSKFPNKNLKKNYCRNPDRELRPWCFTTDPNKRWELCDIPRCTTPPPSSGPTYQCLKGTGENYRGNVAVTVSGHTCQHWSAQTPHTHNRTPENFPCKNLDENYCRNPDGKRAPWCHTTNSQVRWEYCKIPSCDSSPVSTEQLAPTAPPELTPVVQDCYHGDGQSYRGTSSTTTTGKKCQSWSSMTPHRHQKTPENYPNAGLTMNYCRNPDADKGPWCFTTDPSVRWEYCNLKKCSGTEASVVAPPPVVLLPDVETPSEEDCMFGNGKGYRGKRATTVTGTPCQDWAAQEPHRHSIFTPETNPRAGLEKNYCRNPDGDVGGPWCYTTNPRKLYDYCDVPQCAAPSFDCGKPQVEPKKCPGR
READOUT: Ki

Query string: Item N=C(N)c1cccc(S(=O)(=O)NCc2ccc(OCCCCCOc3ccc(CNS(=O)(=O)c4cccc(C(=N)N)c4)cc3)cc2)c1 has what recorded Ki?
Result string: 0.93 µM

Query string: Item N=C(N)c1ccc(C(=O)NCc2ccc(OCCCOc3ccc(CNC(=O)c4ccc(CN)cc4)cc3)cc2)cc1 has what recorded Ki?
Result string: 7.6 µM

Query string: Item N=C(N)c1cccc(C(=O)NCc2ccc(OCCCOc3ccc(CNC(=O)c4cccc(C(=N)N)c4)cc3)cc2)c1 has what recorded Ki?
Result string: 28 µM

Query string: Item N=C(N)c1ccc(C(=O)NCc2ccc(OCCCCCCOc3ccc(CNC(=O)c4ccc(C(=N)N)cc4)cc3)cc2)cc1 has what recorded Ki?
Result string: 1.6 µM
